method_description: acute oral lethality (LD50) in rat
conditions: in vivo, p.o.
Counter-ions that a name gives are not always drawn.
quantity: LD50 (mg/kg)

CN1CCN(CCCn2c3ccccc3c3ccccc32)CC1 [compound B, reference compound]
830
C[C@@H]1CN(CCCn2c3ccccc3c3ccccc32)C[C@H](C)N1 [Example 1, dihydrochloride hemihydrate]
957

###

method_description: acute lethality (LD50) in male mice
conditions: mouse, in vivo, oral, read-out: LD50 oral
Counter-ions that a name gives are not always drawn.
quantity: LD50

C[C@@H]1CN(CCCn2c3ccccc3c3ccccc32)C[C@H](C)N1 [Example 1, dihydrochloride hemihydrate]
977 mg/kg
